Molecular target: Nuclear receptor subfamily 1 group I member 3 (Homo sapiens)
Assay: qHTS assay to identify small molecule antagonists of the constitutive androstane receptor (CAR) signaling pathway (AID 1224838);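 also: HepG2 cells stably expressing hCAR with CYP2B6 luciferase reporter stimulated by CITCO; nearly all actives have a fitted effect of over 40% in size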
Conditions: HepG2-CYP2B6-hCAR luciferase, CITCO-stimulated, 24 h; series mostly up to 92.4 µM
Results filed as inconclusive are left out. Calls of active or inactive are those of the source. Calls follow the shape of the dose curve; as a rule, active = well fitted inhibition curve with a large enough effect in the repeat runs; inconclusive = weak or mixed curves, or effect the other way; inactive = no such curve, though single readings can be large or run the other way.
Respond with a class label; see active, inactive

Answered cases to consult:
COMPOUND: CN1CCN(CCCN2c3ccccc3Sc3ccc(Cl)cc32)CC1
TGT: Nuclear receptor subfamily 1 group I member 3 (Homo sapiens)
QUALITATIVE_LABEL: inactive
//
COMPOUND: Cc1ccc(S(=O)(=O)C(I)I)cc1
TGT: Nuclear receptor subfamily 1 group I member 3 (Homo sapiens)
QUALITATIVE_LABEL: active
//
COMPOUND: C/C=C/C(=O)C1=C(C)C=CCC1(C)C
TGT: Nuclear receptor subfamily 1 group I member 3 (Homo sapiens)
QUALITATIVE_LABEL: inactive

Query string: Recorded test outcome, item `CCN(CC)c1ccc2c(c1)Oc1cc(N(CC)CC)ccc1C21OC(=O)c2ccccc21`
Result string: inactive

Query string: Per the records of this test, what outcome belongs to `ClC(c1ccccc1)(c1ccccc1)c1ccccc1` ?
Result string: inactive

Query string: Could you kindly confirm the outcome this assay logged for `CCc1c(C)cc(N)c(CC)c1N` ?
Result string: inactive

====

Test: qHTS assay to identify small molecule agonists of the progesterone receptor (PR) signaling pathway - cell viability counter screen (AID 1346799); also: nearly all actives have a fitted effect of over 45% in size
Details: PR-UAS-bla HEK293T viability, CellTiter-Glo luminescence, 16 h; series mostly up to 92.4 µM
Inconclusive results are not listed. Calls of active or inactive are those of the source. Calls follow the shape of the full dose curve.
// classify into TRUE (active), FALSE (inactive)

The examples below pair each entry with its known result.
COMPOUND: O=C1CCCCCCCCCCCCCC1
QUALITATIVE_LABEL: FALSE
--
COMPOUND: c1ccc2cc3c4ccccc4c4ccccc4c3cc2c1
QUALITATIVE_LABEL: FALSE
--
COMPOUND: Clc1cccc(Cl)n1
QUALITATIVE_LABEL: FALSE

Query string: Per the records of this test, what outcome belongs to CC(C)(C)c1ccc(OC2CCCCC2O)cc1 (stereo unspecified) ?
Result string: FALSE

Query string: Recorded test outcome, item `Oc1ccc2c(c1)CCC2`
Result string: FALSE

Query string: Tell me the recorded outcome of this test for `Clc1nc(C(Cl)(Cl)Cl)c(Cl)c(Cl)c1Cl` .
Result string: FALSE

Query string: Test call for this compound, please: `CCN(CCC#N)c1ccc(N=Nc2ccc([N+](=O)[O-])cc2)cc1`
Result string: FALSE

Query string: Status in this test for `Cn1ccnc1` ?
Result string: FALSE

Query string: How was `C1CCSC1` classified in this test?
Result string: FALSE

Query string: Outcome? `Cc1ccc(N=Nc2c(O)ccc3ccccc23)c(C)c1`
Result string: FALSE

Query string: What outcome does the record of this test show for `C=CC(C)(C)O` ?
Result string: FALSE

Query string: Dear all, I need the recorded test outcome for `Cn1c(=O)[nH]c2ncn(C)c2c1=O` , thank you.
Result string: FALSE

Query string: Short answer needed: outcome of this test for `CCn1c2ccccc2c2ccccc21` ?
Result string: FALSE

Query string: How was `O=C(CCCCCCCCc1cccnc1)N1CCC(C=C(c2ccccc2)c2ccccc2)CC1` classified in this test?
Result string: TRUE

Query string: // param item: `NC(=O)c1ccccc1Cl` ; yields the recorded call
Result string: FALSE

Query string: Tell me the assay call for CCC(O)CO (stereo unspecified) please.
Result string: FALSE
